# Target of assay: Neurogenic locus notch homolog protein 3 (Homo sapiens)
# Procedure details: small molecules binding NOTCH3 protein – biochemical, 635/667 nm fluorescence, primary screen (AID 1096)
# Reported conditions: small-molecule microarray, 635 nm fluorescence, higher = more signal
Rule: composite z-score under 1 gives Not met, otherwise Met.

Compound	Label class
CC(C)=C1C(=O)C(c2ccccc2)=C2CN3C(=O)N(CCc4ccccc4)C(=O)[C@]3(C)[C@H]21	Not met
CC(C)=CCCC(C)=CC(O)C1C=CC2C(=O)NC(=O)C2N1Nc1ccc(Cl)cc1Cl (stereo not given)	Not met
CCCCCC1=C2CNC(Cc3ccccc3)(C(=O)OC)C=C2C(C)C1=O (stereo not given)	Not met
C#CCN1[C@@H](Cc2ccccc2)C(=O)O[C@H](Cc2ccccc2)[C@@H]1/C=C/C1CC1	Not met
CN(C)CCCC[C@@H]1NC(=O)[C@@H]2C[C@H](C(=O)NCCCCCN)[C@H](c3cccc(OCCO)c3)N2C1=O	Met
O=C(NCc1ccccc1)[C@@H]1c2ccccc2C(=O)N(Cc2cc(C(F)(F)F)cc(C(F)(F)F)c2)[C@H]1c1ccc(CO)cc1	Met
O=C(NCc1ccc(F)cc1)[C@H]1C[C@H]2C(=O)N3CCC[C@H]3C(=O)N2[C@H]1c1ccc(O)cc1	Not met
COC(=O)[C@@]1(Cc2ccccc2)[C@H]2c3cc(C(=O)N4CCCC4)n(Cc4ccc(OC)c(OC)c4)c3C[C@H]2CN1C(=O)c1ccccc1	Met
COc1ccc([Si](C)(C)[C@@H]2[C@@H](CC(=O)N3CCC[C@H]3CO)O[C@]3(C(=O)N(Cc4ccc(N5CCOC5=O)cc4)c4ccccc43)[C@H]2C)cc1	Not met
CC1CC/C=C\[C@H]2OC34C=CCN(C(C)(C)C)C(=O)[C@H]3N(CCCO)C(=O)[C@@H]4C2C(=O)O1 (stereo not given in full)	Not met
COCCOC(=O)N1C(=O)[C@@]2(c3cc(C#CCC(C(=O)OC)C(=O)OC)ccc31)[C@H](C(N)=O)[C@H]1C(=O)O[C@H](c3ccccc3)[C@H](c3ccccc3)N1[C@@H]2c1ccc(O)cc1	Met
CC(C)(C)OC(=O)CC[C@]1(C(=O)NCC(O)CO)N=C(c2ccc(OCCCO)cc2)O[C@H]1c1ccccc1N=[N+]=[N-] (stereo not given in full)	Not met
Cc1ccc(S[C@]2(C(=O)NC3CC3)CC(=O)N(C(C)C)[C@@H]2c2ccc(CO)cc2I)cc1	Not met
C=C(COC)/C(=C/C[C@H](OC(C)=O)c1ccccc1OCCO)c1cc(C(=O)OC)ccc1OC	Not met
COc1ccc(C(O)C2C=CC3C(=O)NC(=O)C3N2Nc2ccc(Cl)cc2Cl)c2ccccc12 (stereo not given)	Met
[N-]=[N+]=Nc1ccccc1[C@@H]1OC(c2ccc(OCCCO)cc2)=N[C@]1(Cc1ccccc1)C(=O)NCCN1CCOCC1	Met
CC(C)(C)N1CC=CC23O[C@@H]4C=CCOC(=O)[C@@H]4[C@H]2C(=O)N(CCO)[C@@H]3C1=O (stereo not given in full)	Not met
COc1ccc(C(O)C2C=CC3C(=O)N(c4ccccc4)C(=O)C3N2Nc2ccc([N+](=O)[O-])cc2)c2ccccc12 (stereo not given)	Met
C=C(COC)C(=O)CC[C@H](OC(=O)c1cccnc1)c1ccc(OCCO)cc1	Not met
COCCOC(=O)N1C(=O)[C@@]2(c3cc(C#CCC(C(=O)OC)C(=O)OC)ccc31)[C@H](C(=O)Nc1nc3ccccc3s1)[C@H]1C(=O)O[C@H](c3ccccc3)[C@H](c3ccccc3)N1[C@@H]2c1ccc(O)cc1	Met
CCCCC(=C=CC[C@H](O)c1ccc(CO)o1)CCO	Not met
COc1ccc(C(=O)Nc2ccc3c(c2)[C@@]2(O[C@H](CCO)[C@@H]([Si](C)(C)c4ccc(OC)cc4)[C@@H]2C)C(=O)N3Cc2ccccc2)cc1	Not met
O=C1O[C@@H](c2ccccc2)[C@@H](c2ccccc2)N2[C@@H](c3ccccc3OCCO)[C@]3(C(=O)Nc4ccc(C#CCCO)cc43)[C@@H](C(=O)NC[C@H](O)c3ccccc3)[C@H]12	Not met
CCCCCC1=C2CNC(CC(C)C)(C(=O)OC)C=C2C(C)C1=O (stereo not given)	Not met
CCCC[C@H]1OB(O)C[C@H]2C1=C(COc1ccccc1)C[C@H]1C(=O)C=CC(=O)[C@H]12	Met
O=C1C2C=CC(C(O)c3cccs3)N(Nc3ccc([N+](=O)[O-])cc3)C2C(=O)N1c1ccccc1 (stereo not given)	Not met
COc1cc(C(O)C2C=CC3C(=O)N(c4ccccc4)C(=O)C3N2Nc2ccccc2)cc(OC)c1OC (stereo not given)	Met
CCCCCCc1nc(-c2ccc(-c3ccc(Cl)c(Cl)c3)o2)cc2c1[Si](C(C)C)(C(C)C)OC2	Not met
CO[C@H]1O[C@H](CO)[C@@H](OC(=O)Nc2ccccc2)[C@H](OC(=O)Nc2ccccc2)[C@H]1OC(=O)Nc1ccccc1	Not met

====

# Procedure details: blockers of DNA damage checkpoint Chk1 activation – imaging, HeLa, hydroxyurea, phospho-Chk1 antibody, percent positive cells, primary screen (AID 1186)
# Reported conditions: hydroxyurea-induced phospho-Chk1 immunofluorescence imaging, higher = more signal
Catalogue of z-score values
Reported property: z-score

> print(dat)
                                   compound  reported.property  assay.result
1  CC1CC/C=C\[C@H]2OC34C=CCN(C(C)(C)C)C(=O)[C@H]3N(CCCO)C(=O)[C@@H]4C2C(=O)O1 (some centres undefined)            z-score        0.0854
2  CC(=O)c1ccc(C(O)C2C=CC3C(=O)N(c4ccccc4)C(=O)C3N2Nc2ccc(C(C)C)cc2)cc1 (centres undefined)            z-score        0.0577
3  CO[C@H]1O[C@H](CO)[C@@H](OC(=O)Nc2ccc3c(c2)OCO3)[C@H](OC(=O)Nc2ccccc2-c2ccccc2)[C@H]1OC(=O)Nc1ccccc1-c1ccccc1            z-score        0.0165
4  COC(=O)[C@@]1(Cc2ccc(F)cc2)[C@H]2c3cc(C(=O)N(C)C)n(C)c3C[C@H]2CN1C(=O)c1ccccc1            z-score         0.707

====

# Procedure details: blockers of DNA damage checkpoint Chk1 activation – imaging, HeLa, hydroxyurea, phospho-Chk1 nuclear intensity, primary screen (AID 1187); also: test concentration not given here
# Reported conditions: hydroxyurea-induced phospho-Chk1 immunofluorescence imaging, higher = more signal
Reported property: z-score

Molecule	Assay result
C=CCC(OC(C)=O)[C@@H]1[C@@H](N(Cc2ccc(-c3cccc(C(F)(F)F)c3)o2)C(=O)c2ccc(-c3ccccc3)cc2)c2cc(OCCCO)ccc2N1C(=O)c1ccc2ccccc2c1 (stereo not given in full)	0.766
COc1ccc([Si](C)(C)[C@H]2[C@H](CC(=O)N3Cc4ccccc4C[C@H]3CO)O[C@@]3(C(=O)N(C)c4ccccc43)[C@@H]2C)cc1	0.169
O=C1C=C(c2ccccc2)C(=O)C2=C1CC([C@H]1Oc3ccccc3S(=O)(=O)N3CCC[C@@H]13)=CC2	0.334
CC1CC/C=C\[C@H]2OC34C=CCN(c5ccc6ccccc6c5)C(=O)[C@H]3N(C(C)CO)C(=O)[C@@H]4C2C(=O)O1 (stereo not given in full)	-0.228
O=C1O[C@H](Cc2ccccc2)[C@@H]2[C@H]3C=CCCC=C3CN2[C@H]1Cc1ccc(O)cc1	-0.122
CO[C@H]1O[C@H](CO)[C@@H](OC(=O)Nc2ccccc2)[C@H](OC(=O)Nc2ccccc2)[C@H]1OC(=O)Nc1ccccc1	0.511
CCCCN1CC=CC23O[C@@H]4/C=C\CCCOC(=O)C4[C@H]2C(=O)N(C(CO)C(C)C)[C@@H]3C1=O (stereo not given in full)	0.188
C=C(CCCC)/C(=C/C[C@H](OC(=O)c1ccncc1)c1ccc(OCCO)cc1)c1cnc2ccccc2c1	-0.869
CC=CC(O)C1C=CC2C(=O)NC(=O)C2N1Nc1ccc(Cl)cc1Cl (stereo not given)	1.22
COC(=O)[C@]1(CCC(=O)OC(C)(C)C)N=C(c2ccc(OCCCO)cc2)O[C@@H]1c1ccccc1N=[N+]=[N-]	0.562
CCOC(=O)C[C@H]1[C@H](OC(=O)c2ccccc2-c2ccccc2)[C@@H](NC(=O)c2ccc3ccccc3c2)c2cc(OCCCO)ccc2N1C(=O)Cc1ccc(OC)cc1	-0.189
CCCCC(O)C1C=CC2C(=O)N(c3ccccc3)C(=O)C2N1Nc1ccc([N+](=O)[O-])cc1 (stereo not given)	0.501
COc1cc(CO)cc(I)c1O[C@H]1C=C(C(=O)NCCO)C[C@@H](NC2CCCCCC2)[C@@H]1O	-1.01
C=CCC(OC(C)=O)[C@@H]1[C@@H](N(Cc2cccc3ccccc23)C(=O)Cc2ccc(OC)cc2)c2cc(OCCCO)ccc2N1C(=O)Cc1ccc2ccccc2c1 (stereo not given in full)	0.512
COCCCN1C(=O)[C@@]2(c3ccc([N+](=O)[O-])cc3)CC(=O)N(CC34CC5CC(CC(C5)C3)C4)[C@@H]2c2ccc(CO)cc21	-0.793

Measured values drawn from PubChem BioAssay for this set.
